Parameter: IC50. Scope: all listed entries.
target: MAPKAPK3 (Homo sapiens, UniProt Q16644)
Sequence (Q16644 whole entry, species assumed): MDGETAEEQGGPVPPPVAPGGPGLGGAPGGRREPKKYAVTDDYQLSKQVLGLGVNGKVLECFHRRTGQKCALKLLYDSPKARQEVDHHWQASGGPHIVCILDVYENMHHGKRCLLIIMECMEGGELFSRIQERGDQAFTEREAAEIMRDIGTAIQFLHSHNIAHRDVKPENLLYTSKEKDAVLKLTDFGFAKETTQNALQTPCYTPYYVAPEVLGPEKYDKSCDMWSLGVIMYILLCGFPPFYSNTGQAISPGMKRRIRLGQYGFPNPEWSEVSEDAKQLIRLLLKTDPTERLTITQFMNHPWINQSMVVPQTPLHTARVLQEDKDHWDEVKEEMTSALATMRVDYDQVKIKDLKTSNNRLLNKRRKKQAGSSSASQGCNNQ

Nc1ncsc1C#Cc1cnc2[nH]ccc2c1 : > 1 µM

Inquiry: Query IC50 for CC(C)(C)OC(=O)Nc1ncsc1C#CCN1C(=O)c2ccccc2C1=O
Reply text: > 1 µM

Inquiry: Query IC50 for Nc1ncsc1C#Cc1cccc(O)c1
Reply text: 10 to 100 µM

Inquiry: Query IC50 for CC(C)(C)OC(=O)Nc1nc(-c2ccncc2)sc1C#CCN1CCOCC1
Reply text: 10 to 100 µM

Inquiry: Query IC50 for c1ccc(Cc2c[nH]c3ncsc23)cc1 [Compound A7, 6-benzyl-4H-pyrrolo[2,3-d]thiazole]
Reply text: > 1 µM
